# test_system: SST2 (Homo sapiens)
# Construct: host or cells: PathHunter CHO-K1 SST2 cells
# Sequence (P30874 whole entry): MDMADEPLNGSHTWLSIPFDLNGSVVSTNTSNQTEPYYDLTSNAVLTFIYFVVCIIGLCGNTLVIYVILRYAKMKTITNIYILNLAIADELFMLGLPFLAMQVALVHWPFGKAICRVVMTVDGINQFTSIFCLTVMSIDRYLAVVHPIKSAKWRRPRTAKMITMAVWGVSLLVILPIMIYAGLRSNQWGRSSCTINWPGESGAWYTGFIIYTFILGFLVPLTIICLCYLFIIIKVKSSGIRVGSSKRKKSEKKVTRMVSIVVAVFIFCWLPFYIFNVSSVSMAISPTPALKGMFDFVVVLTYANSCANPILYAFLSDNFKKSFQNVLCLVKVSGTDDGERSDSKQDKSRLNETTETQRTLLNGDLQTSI
# protocol_summary: PathHunter CHO-K1 SST2 Internalization Assay
# Type: cell-based
# condition_description: PathHunter CHO-K1 SST2 cells; 90 min at 37 C; luminescence; read-out: Internalization EC50

[
  {
    "line_notation": "CC[C@H](C)[C@@H]([C@@H](CC(=O)N1CCC[C@H]1[C@H](OC)[C@@H](C)C(=O)N[C@H](C)[C@@H](O)c1ccccc1)OC)N(C)C(=O)[C@@H](NC(=O)[C@H](C(C)C)N(C)C(=O)OCc1ccc(NC(=O)[C@H](CCCNC(N)=O)NC(=O)[C@@H](NC(=O)CCOCCOCCOCCOCCC(=O)NCCNc2ncc(-c3cc(C)cc(F)c3)c(N3CCC(N)CC3)c2-c2nc3ccc(Cl)cc3[nH]2)C(C)C)cc1C(=O)N1CC(C(=O)O)C1)C(C)C",
    "EC50": "5.5 nM"
  },
  {
    "line_notation": "CC[C@H](C)[C@@H]([C@@H](CC(=O)N1CCC[C@H]1[C@H](OC)[C@@H](C)C(=O)N[C@H](C)[C@@H](O)c1ccccc1)OC)N(C)C(=O)[C@@H](NC(=O)[C@H](C(C)C)N(C)C(=O)OCc1ccc(NC(=O)[C@H](CCCNC(N)=O)NC(=O)[C@@H](NC(=O)CCOCCC(=O)NCCNc2ncc(-c3cc(C)cc(F)c3)c(N3CCC(N)CC3)c2-c2nc3ccc(Cl)cc3[nH]2)C(C)C)cc1C(=O)N[C@@H](CCCCNC(=O)CCCCc1ccc(I)cc1)C(=O)O)C(C)C",
    "EC50": "1.5 nM"
  }
]
